test: Solubility in different solvents (supersaturated solution, filtrate analysed by HPLC); settings: dimethyl sulfoxide, organic solvent or mixture, thermodynamic from solid
ASSAY_READOUT: solubility at 30 min (µg/mL)
The figure you give is taken to be in µg/mL; do not add the unit.

Can you look up the measured solubility at 30 min of CC[C@@]1(O)C(=O)OCc2c1cc1n(c2=O)Cc2cc3ccccc3nc2-1 for me?
3290

###

test: Solubility in different solvents (supersaturated solution, filtrate analysed by HPLC); details: chloroform, organic solvent or mixture, thermodynamic from solid
ASSAY_READOUT: solubility at 30 min (µg/mL)
The figure you give is taken to be in µg/mL; do not add the unit.

Can you look up the measured solubility at 30 min of CC[C@@]1(O)C(=O)OCc2c1cc1n(c2=O)Cc2cc3ccccc3nc2-1 [Camptothecin, camptothecin] for me?
2
